- Test Details: Solubility screening of Formula (I) in crystallization solvents at RT and 50° C. (TABLE 3)
- Type: physicochemical
- Recorded Conditions: acetone, organic solvent or mixture, thermodynamic from solid, Acetone; RT; read-out: Solubility Range
Measurement Label: solubility

Returns the measured solubility for the input compound. Input: CC[C@H](C)C(=O)N1CCC(NC(=O)Nc2ccc(OC(F)(F)F)c(F)c2)CC1 ≥ 43.7 mg/mL

###

- Test Details: Solubility screening of Formula (I) in crystallization solvents at RT and 50° C. (TABLE 3)
- Assay type: physicochemical
- Recorded Conditions: ethyl acetate (EtOAc), organic solvent or mixture, thermodynamic from solid, EtOAc; RT; read-out: Solubility Range
- Excerpt: This example covers crystallization of Formula (I) in multiple solvent systems. Solvents were selected to span a range of polarities, functionalities, and classifications according to the International Conference on Harmonization (ICH) with preferences given to class II and class III solvents. […] After each addition of solvent, the vials were shaken and visually inspected for residual solids. […]
Measurement Label: solubility

# query: solubility of entry CC[C@H](C)C(=O)N1CCC(NC(=O)Nc2ccc(OC(F)(F)F)c(F)c2)CC1 [Formula (I)] ≥ 54.3 mg/mL
